Form field: thermal stability score (one value per entry).
- Test system: HeLa Kyoto;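 also: synchronized HeLa Kyoto cells, proteins quantified by TMT10plex mass spectrometry, three biological replicates, mitosis taken 0.5 h after nocodazole release, G1/S directly after double thymidine block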
- method-summary: thermal stability score vs G1/S (z-score of summed log2 fold changes over temperatures); higher = more thermally stable than in G1/S
- measurement-conditions: cell cycle stage: mitosis

| biosequence | thermal stability score |
| --- | --- |
| MSRGPSSAVLPSALGSRKLGPRSLSCLSDLDGGVALEPRACRPPGSPGRAPPPTPAPSGCDPRLRPIILRRARSLPSSPERRQKAAGAPGAACRPGCSQKLRVRFADALGLELAQVKVFNAGDDPSVPLHVLSRLAINSDLCCSSQDLEFTLHCLVPDFPPPVEAADFGERLQRQLVCLERVTCSDLGISGTVRVCNVAFEKQVAVRYTFSGWRSTHEAVARWRGPAGPEGTEDVFTFGFPVPPFLLELGSRVHFAVRYQVAGAEYWDNNDHRDYSLTCRNHALHMPRGECEESWIHFI [PPP1R3D] | -0.713 |
| MESNKDEAERCISIALKAIQSNQPDRALRFLEKAQRLYPTPRVRALIESLNQKPQTAGDQPPPTDTTHATHRKAGGTDAPSANGEAGGESTKGYTAEQVAAVKRVKQCKDYYEILGVSRGASDEDLKKAYRRLALKFHPDKNHAPGATEAFKAIGTAYAVLSNPEKRKQYDQFGDDKSQAARHGHGHGDFHRGFEADISPEDLFNMFFGGGFPSSNVHVYSNGRMRYTYQQRQDRRDNQGDGGLGVFVQLMPILILILVSALSQLMVSSPPYSLSPRPSVGHIHRRVTDHLGVVYYVGDTFSEEYTGSSLKTVERNVEDDYIANLRNNCWKEKQQKEGLLYRARYFGDTDMYHRAQKMGTPSCSRLSEVQASLHG [DNAJB12] | 0.328 |
| MEANGLGPQGFPELKNDTFLRAAWGEETDYTPVWCMRQAGRYLPEFRETRAAQDFFSTCRSPEACCELTLQPLRRFPLDAAIIFSDILVVPQALGMEVTMVPGKGPSFPEPLREEQDLERLRDPEVVASELGYVFQAITLTRQRLAGRVPLIGFAGAPWTLMTYMVEGGGSSTMAQAKRWLYQRPQASHQLLRILTDALVPYLVGQVVAGAQALQLFESHAGHLGPQLFNKFALPYIRDVAKQVKARLREAGLAPVPMIIFAKDGHFALEELAQAGYEVVGLDWTVAPKKARECVGKTVTLQGNLDPCALYASEEEIGQLVKQMLDDFGPHRYIANLGHGLYPDMDPEHVGAFVDAVHKHSRLLRQN [UROD] | -0.608 |
| MSSLSGKVQTVLGLVEPSKLGRTLTHEHLAMTFDCCYCPPPPCQEAISKEPIVMKNLYWIQKNAYSHKENLQLNQETEAIKEELLYFKANGGGALVENTTTGISRDTQTLKRLAEETGVHIISGAGFYVDATHSSETRAMSVEQLTDVLMNEILHGADGTSIKCGIIGEIGCSWPLTESERKVLQATAHAQAQLGCPVIIHPGRSSRAPFQIIRILQEAGADISKTVMSHLDRTILDKKELLEFAQLGCYLEYDLFGTELLHYQLGPDIDMPDDNKRIRRVRLLVEEGCEDRILVAHDIHTKTRLMKYGGHGYSHILTNVVPKMLLRGITENVLDKILIENPKQWLTFK [PTER] | -0.753 |
